assay-name: NCI Yeast Anticancer Drug Screen. Data for the rad52 strain (AID 147);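 note: 0% = growth of vehicle-treated control cultures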
assay-setup: S. cerevisiae rad52 mutant growth inhibition; at 11.0 µM
The panel holds about 79,000 compounds, 15% with a hit somewhere; the sample as a whole holds those more often. Calls of active or inactive are those of the source. Cut-off read from the data, not from the text of the source: active = growth inhibition above about 70%; inactive = the rest.
Possible outcomes: active, inactive

molecule | classification
CN=C(N)N/N=C/c1ccc2c(c1)Cc1ccccc1-2 | inactive
O=[n+]1c2ccc(Cl)cc2n([O-])c2ccc(Cl)cc21 | inactive
COc1cc2c3c(cccc3c1)C(=O)N(CCN(C)C)C2=O | inactive
COC1=CC(=O)C(C2(OC(C)C)OC(=O)C(Cl)=C2Cl)=CC1=O (stereo unspecified) | active
CC(=O)Oc1ccc2c(c1)Cc1cc(N=C3C=CC(=O)O3)ccc1-2 | active
O=C(/C=C/c1cccc(Br)c1)c1cccs1 | active
COc1ccc(NC(=S)N/N=C(\c2ccccc2)c2ccccn2)cc1 | inactive
O=C(Nc1ccccc1)C(=O)C(C(=O)c1ccccc1)C(c1ccccc1)c1ccccc1 (stereo unspecified) | inactive
CC[n+]1ccc2c(C)c3[nH]c4ccc(O)cc4c3c(C)c2c1 | active
Cn1c(=O)c(-c2ccccc2)c(N=[N+]=[N-])c2ccccc21 | inactive
C/C(=N\O)C1CC2C=C(C#N)C1N(Cc1ccccc1)C2 (stereo unspecified) | inactive
COc1ccc(-c2cn(-c3ccc(I)cc3)c3ncnc(N)c23)cc1 | inactive
Cc1cc(CO)c(O)c(CNCc2cc(C)cc(CO)c2O)c1 | inactive
O=C(Cc1csc2[n+]1C(=O)/C(=C/c1ccc(Cl)cc1)S2)Nc1ccccc1 | inactive
COc1ccc(O)c(/C=N\Nc2ccccc2)c1 | inactive
Cc1ccc(CSC(N)=Nc2ccccc2)cc1C | inactive

====

assay-name: NCI Yeast Anticancer Drug Screen. Data for the cln2 rad14 strain (AID 165);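 note: 0% = growth equal to vehicle treated cultures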
assay-setup: S. cerevisiae cln2 rad14 strain, at 50.0 µM, hits give high values
The panel holds about 79,000 compounds, 15% with a hit somewhere; the sample as a whole holds those more often.

molecule | growth inhibition [%]
Cc1ccc(S(=O)(=O)NNC(=S)Nc2cccc3ccccc23)cc1 | 13.4
O=C1c2ccccc2C(=O)c2c(NC3CCCCC3)ccc(Nc3ccc(S(=O)(=O)O)cc3)c21 | 59
CSC(=S)Nc1cc(C)ccn1 | 83
CN(C)c1ccc(C(C#N)=C(C#N)C#N)cc1 | 59.5
O=C1Nc2ccc(Cl)c(I)c2C1=O | 37.1
Oc1c(Br)cc(Br)cc1C1CCCCC1 | 89.6
O=C(c1ccc(Cl)cc1)C1OC12C(=O)Nc1ccccc12 (stereo not given) | 99.7
CC(C(=O)N1C(=O)N(C(=O)[C@H](C)C(O)c2ccccc2)[C@H](c2ccccc2)[C@H]1c1ccccc1)[C@@H](O)c1ccccc1 (stereo not given in full) | 77.2
N/C(=N\OC(=O)NC(Cl)=C(Cl)Cl)c1cc(C(F)(F)F)cc(C(F)(F)F)c1 | 89
S=C(N/N=C(/c1ccccc1)c1ccccn1)N1CCCCCC1 | 82.5
Cc1ccc2[nH]c3c(C)c4cc[n+](C)cc4c(C)c3c2c1 | 62.3
CC(C)OC(=O)Oc1ccccc1OC(=O)OC(C)C | 23.2
Cn1c(=O)c2ccccc2c2ccccc21 | 70.5
COc1ccc(/C=C2\SC(=S)N(/C=C/c3nc4ccccc4[nH]c3=O)C2=O)cc1OC | 32.5
O=C1C2CC[C@@H]3C(=O)C(Cl)(Cl)[C@@H]3CCC2C1(Cl)Cl (stereo not given in full) | 78.8
O=[N+]([O-])CC(SCc1ccccc1)c1ccc2c(c1)OCO2 (stereo not given) | 90.2
N#CSc1ccc(S(N)(=O)=O)cc1 | 41.4
CC1(C)C(=O)OC(n2cc(F)c(=O)[nH]c2=O)C1=O (stereo not given) | 56.8
CC[n+]1ccc2c(C)c3[nH]c4ccc(O)cc4c3c(C)c2c1 | 9.35
CC(=O)Nc1ccc(SC(C)=O)cc1 | 66.7
CN(C)Cc1cc(N=Nc2ccc(Cl)cc2)cc(CN(C)C)c1O | 44
Clc1cccc(C(Nc2nncs2)Nc2nncs2)c1Cl | -2.6
Cc1ccc(CCC2=CCCc3c2ccc2ccccc32)cc1 | 16.8
COc1cc(CC2CC(c3ccc4c(c3)OCO4)OC2=O)cc(OC)c1OC (stereo not given) | 1.35
CC1=NN(c2cccc(Cl)c2)C(=O)C1 | 27.2
